# ASSAY_EXPLANATION: Pharmacokinetics in male CD-1 mice
# Format: in vivo
# ASSAY_CONTEXT: mouse, 30 mg/kg PO, mean plasma
MEASURE: Cmax (ng/mL)
Note: unit ng/mL is implicit; provide only the numeric part.

Return reported Cmax; argument: C=C(F)C(=O)N1CCN(c2nc(OC[C@@H]3CCCN3C)nc3cc(-c4cccc5cccc(Cl)c45)cnc23)C[C@@H]1CC#N [Example 2]
1220

* * *

# ASSAY_EXPLANATION: Pharmacokinetics in male CD-1 mice
# Type: in vivo
# ASSAY_CONTEXT: mouse, 3 mg/kg IV, mean plasma
MEASURE: AUC(0-inf) (ng·h/mL)
Your answer is read as ng·h/mL, so omit the unit and give the number.

GET /values?readout=AUC(0-inf)&item= C=C(F)C(=O)N1CCN(c2nc(OC[C@@H]3CCCN3C)nc3cc(-c4cccc5cccc(Cl)c45)cnc23)C[C@@H]1CC#N
2450
